// data source = PubChem BioAssay AID485395

System: replicative DNA helicase (DnaC/DnaB), Staphylococcus aureus
Assay: S. aureus DnaC helicase unwinding inhibition – biochemical, fluorescence unwinding readout, primary screen (AID 485395);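 also: 0% = mean of negative control wells and 100% = mean of positive control wells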
Settings: purified S. aureus helicase, fluorescence unwinding assay; active compounds read high; concentration not given here
The campaign covered roughly 120,000 compounds. About 55 (0.05%) were called active. The full list was thinned out, with actives kept by preference.
This section presents compounds with their documented inhibition values.
quantity: inhibition (%)

1) COc1ccc(/C=C2\Oc3cc(OC(=O)c4ccc(F)cc4)ccc3C2=O)cc1; 5
2) CCN(CC)C(=O)c1ccc(CS(=O)c2cccc(Cl)c2)o1 (centres undefined); 24
3) Cc1nc2ncnn2c(C)c1CCC(=O)N(Cc1cccnc1)c1ccc2c(c1)OCO2; -82
4) Cc1nn(Cc2ccc(Cl)cc2)c(C)c1NC(=O)COCc1cc(-c2cccs2)on1; -15
5) NC(=O)C12CC3CC(CC(Cl)(C3)C1)C2; -9
6) CC1CC(C)CN(C(=O)c2ccc3c(c2)N(C)C(=O)/C(=C/c2cccc(Cl)c2)S3)C1 (centres undefined); -10
7) O=C(NCC1CCCO1)c1ccc2c(=O)n3c(nc2c1)CCCCC3 (centres undefined); 2
8) COc1ccc(OC)c(NC(=O)CSc2nccn2-c2cccc(Cl)c2)c1; 3
9) CCOc1nc(NC(=O)NC(=O)c2cccs2)nc(-c2ccccc2)n1; 11
10) COc1ccccc1C/C(N)=N/OC(=O)c1ccccc1; 6
11) CCCCNC(=O)Cn1c(-c2ccc(C)cc2)noc1=O; 10
12) CN(C)c1ccc(NC(=O)CSc2nnc(C3CC3)n2N)cc1; -15
13) Cc1ccccc1NC(=O)CSc1nc2ccc(N)cc2s1; -1
14) COc1ccc2c(=O)c(-c3ccc(F)cc3)coc2c1; 0
15) CC(C)c1ccc(N=Cc2cccs2)cc1; 21
16) NNC(=O)CCCc1nc2ccccc2s1; 4
17) CCc1ccc(C(=O)C(C)Sc2nnc(-c3ccccc3)o2)cc1 (centres undefined); -5
18) Cc1occc1-c1nnc(SCc2ccc(C(C)(C)C)cc2)n1N; -3
19) O=C(O)c1cccc(S(=O)(=O)NCC(F)(F)F)c1; 18
20) c1ccc(CCNCc2cn[nH]c2-c2cccs2)cc1; -16
21) Cc1nn(CC(=O)NCCc2ccccc2)c(=O)c2cc3occc3n12; 8
22) COc1ccc(C(=O)n2c(SC)nc3ccccc32)cc1OC; -17
23) COCCN(Cc1nc2ccccc2c(=O)[nH]1)C(=O)C1=NN(c2cccc(C)c2)C(=O)CC1; 4
24) CCn1c(CNC(=O)c2ccncc2)cc2ccccc21; 7
25) CC1CCCCN1S(=O)(=O)c1ccc(I)cc1 (centres undefined); 17
26) O=S1(=O)CCC(n2nnnc2-c2ccc(Cl)cc2)C1 (centres undefined); 13
27) Cn1cc(SC(=N)N)c2ccccc21; -12
28) COc1ccc(NC(=O)c2ccoc2COc2ccc(C)cc2)cc1; 0
29) Cc1nc2cc(N=Cc3ccc(Cl)cc3)ccc2n1Cc1ccccc1; 10
30) CN(C)CCCNc1c(N)c(=O)oc2ccccc12; 27
31) CCOC(=O)c1c(CN2CCN(CC#N)CC2)n(-c2ccccc2)c2ccc(O)cc12; -1
32) CC(C)CCSc1nc2ccccc2n1CN1CCN(S(=O)(=O)c2ccc(Cl)cc2)CC1; 3
33) Cc1cc(F)ccc1S(=O)(=O)Nc1ccccc1C(=O)OCC(=O)N1CCCC1=O; 4
34) Cc1nn(C)c(Cl)c1S(N)(=O)=O; 8
